Give measured Activity for each item. Keep answers brief.
tested on: NCI-H1299; test: Effect on OVA expression in human H1299 cells at 10 uM incubated for 40 hrs by western blot analysis; format: functional; set-up: unit not given here
Just the number, please, no unit after it.

Lab note: need Activity with NCI-H1299 for entry `C[n+]1ccc(/C=N/NC(=O)c2cccc(C(=O)N/N=C/c3cc[n+](C)c4ccccc34)n2)c2ccccc21.[I-].[I-]` , please look it up.
101

Lab note: need Activity with NCI-H1299 for entry `C[n+]1ccc(/C=N/NC(=O)c2cc(C(=O)N/N=C/c3cc[n+](C)cc3)ncn2)cc1.[I-].[I-]` , please look it up.
92

Lab note: need Activity with NCI-H1299 for entry `CC[n+]1cccc2cc(/C=N/NC(=O)c3ccc4ccc5ccc(C(=O)N/N=C/c6ccc7c(ccc[n+]7CC)c6)nc5c4n3)ccc21.[I-].[I-]` , please look it up.
96

Lab note: need Activity with NCI-H1299 for entry `O=C(N/N=C/c1ccc2c(ccc[n+]2Cc2ccccc2)c1)c1ccc2ccc3ccc(C(=O)N/N=C/c4ccc5c(ccc[n+]5Cc5ccccc5)c4)nc3c2n1.[Br-].[Br-]` , please look it up.
94
